target: UniProt P37059; assay: Inhibition of human microsomal 17beta-HSD2 using [2,4,6,7-3H]E2 as substrate at 1 uM after 20 mins by radioflow detector
Some compounds, each annotated with its measured inhibition.
Write the answer as a number in %, unit excluded.

Observe how each entry below is paired with its result.
- structure: "Cc1cc(-c2ccc(C(=O)c3ccc(F)c(O)c3)cc2)ccc1O"
  system-under-test: "UniProt P37059"
  value-observed: 98
- structure: "Cc1cc(-c2ccc(C(=O)c3ccc(F)c(O)c3)nc2)ccc1O"
  system-under-test: "UniProt P37059"
  value-observed: 84

Find the measured inhibition of O=C(c1cccc(O)c1)c1cccc(-c2ccc(O)c(Cl)c2)n1 and report it.
55

Find the measured inhibition of Cc1cc(-c2ccc(C(=O)c3cccc(O)c3)cc2)ccc1O and report it.
90

Find the measured inhibition of O=C(c1cccc(O)c1)c1cccc(-c2ccc(O)cc2F)n1 and report it.
56

Find the measured inhibition of O=C(c1ccc(-c2ccc(O)c(Cl)c2)cc1)c1ccc(F)c(O)c1 and report it.
100

---

Some compounds, each annotated with its measured IC50.
target: 17-beta-hydroxysteroid dehydrogenase type 2 (Homo sapiens); experiment: Inhibition of human microsomal 17beta-HSD2 in cell-free system using [2,4,6,7-3H]E2 as substrate after 20 mins by radioflow detector
Write the answer as a number in nM, unit excluded.

- structure: "O=C(c1ccc(F)c(O)c1)c1ccc(-c2ccc(O)c(Cl)c2)cn1"
  IC50, nM: 153
- structure: "Cc1cc(-c2ccc(C(=O)c3cccc(O)c3)cc2)ccc1O"
  IC50, nM: 132
- structure: "O=C(c1ccc(-c2ccc(O)c(F)c2)cc1)c1cccc(O)c1"
  IC50, nM: 525
- structure: "Cc1cc(-c2cccc(C(=O)c3ccc(F)c(O)c3)n2)ccc1O"
  IC50, nM: 757
- structure: "Cc1cc(-c2ccc(C(=O)c3cc(O)cc(F)c3)cc2)ccc1O"
  IC50, nM: 31

Find the measured IC50 of Cc1cc(-c2cccc(C(=O)c3cccc(O)c3)c2)ccc1O and report it.
379

Find the measured IC50 of O=C(c1cccc(O)c1)c1cccc(-c2ccc(O)c(Cl)c2)n1 and report it.
752

Find the measured IC50 of O=C(c1ccc(-c2ccc(O)c(Cl)c2)cc1)c1cccc(O)c1 and report it.
153

Find the measured IC50 of Cc1cc(-c2ccc(C(=O)c3cccc(O)c3)nc2)ccc1O and report it.
260

Find the measured IC50 of Cc1cc(-c2ccc(C(=O)c3ccc(F)c(O)c3)nc2)ccc1O and report it.
101

Find the measured IC50 of Cc1cc(-c2ccc(C(=O)c3cccc(O)c3)cn2)ccc1O and report it.
220

---

molecular target: UniProtKB P14061; test: Inhibition of human cytosolic 17beta-HSD1 in cell-free system using [2,4,6,7-3H]E1 as substrate after 10 mins by radioflow detector
endpoint: pIC50
Reminder that pIC50 is minus the log10 of a molar concentration.

Observe how each entry below is paired with its result.
- structure: "Cc1cc(-c2ccc(C(=O)c3ccc(F)c(O)c3)nc2)ccc1O"
  value-observed: 5.90
- structure: "Cc1cc(-c2ccc(C(=O)c3cccc(O)c3)nc2)ccc1O"
  value-observed: 5.26
- structure: "O=C(c1ccc(-c2ccc(O)c(Cl)c2)cc1)c1cccc(O)c1"
  value-observed: 6.24
- structure: "Cc1cc(-c2cccc(C(=O)c3cccc(O)c3)c2)ccc1O"
  value-observed: 6.32
- structure: "Cc1cc(-c2ccc(C(=O)c3cccc(O)c3)cc2)ccc1O"
  value-observed: 6.38

Find the measured pIC50 of Cc1cc(-c2ccc(C(=O)c3cccc(O)c3)cn2)ccc1O and report it.
6.25

Find the measured pIC50 of O=C(c1cccc(O)c1)c1cccc(-c2ccc(O)c(Cl)c2)n1 and report it.
4.22

Find the measured pIC50 of Cc1cc(-c2ccc(C(=O)c3ccc(F)c(O)c3)cc2)ccc1O and report it.
6.54
